Assay: Selectivity index, ratio of ED50 for human HepG2 cells to MIC for Staphylococcus aureus 3R7089 strain Oxford/ATCC 9144
Type: toxicity
Details: read-out: Selectivity Index
Square brackets hold non-standard residues; d marks the D form. Peptide text beside a SMILES is read from it. Gly(N-2-aminoethyl) = NCCNCC(=O)O; Nspe = C[C@H](NCC(=O)O)c1ccccc1; Nphe = O=C(O)CNCc1ccccc1; Nlys = NCCCCNCC(=O)O
measured attribute: selectivity ratio
# output: bare number, no unit

Reported selectivity ratio ( NCCCCNCC(=O)N(CC(=O)N(CC(=O)N(CCCCN)CC(=O)N(CC(=O)N(CC(=O)N(CCCCN)CC(=O)N(CC(=O)N(CC(=O)N(CCCCN)CC(=O)N(CC(=O)N(CC(N)=O)Cc1ccccc1)Cc1ccccc1)Cc1ccccc1)Cc1ccccc1)Cc1ccccc1)Cc1ccccc1)Cc1ccccc1)Cc1ccccc1 (H-[Nlys][Nphe][Nphe][Nlys][Nphe][Nphe][Nlys][Nphe][Nphe][Nlys][Nphe][Nphe]-NH2) ) = 33

C[C@@H](c1ccccc1)N(CC(N)=O)C(=O)CN(C(=O)CN(CCN)C(=O)CN(C(=O)CN(C(=O)CN(CCN)C(=O)CN(C(=O)CN(C(=O)CN(CCN)C(=O)CN(C(=O)CN(C(=O)CNCCN)[C@@H](C)c1ccccc1)[C@@H](C)c1ccccc1)[C@@H](C)c1ccccc1)[C@@H](C)c1ccccc1)[C@@H](C)c1ccccc1)[C@@H](C)c1ccccc1)[C@@H](C)c1ccccc1 (H-[Gly(N-2-aminoethyl)][Nspe][Nspe][Gly(N-2-aminoethyl)][Nspe][Nspe][Gly(N-2-aminoethyl)][Nspe][Nspe][Gly(N-2-aminoethyl)][Nspe][Nspe]-NH2) yielded selectivity ratio of 21

Summary for this compound, NCCNCC(=O)N(CC(=O)N(CC(=O)N(CCN)CC(=O)N(CC(=O)N(CC(=O)N(CCN)CC(=O)N(CC(=O)N(CC(N)=O)Cc1ccccc1)Cc1ccccc1)Cc1ccccc1)Cc1ccccc1)Cc1ccccc1)Cc1ccccc1 (H-[Gly(N-2-aminoethyl)][Nphe][Nphe][Gly(N-2-aminoethyl)][Nphe][Nphe][Gly(N-2-aminoethyl)][Nphe][Nphe]-NH2) : selectivity ratio is 8

FYI, the data here is from ChEMBL document CHEMBL4261490.
